System: LXRa:RXRa (NR concentration 270 nM, RXRa partner concentration 90 nM)
Experiment: PBM binding z-score (relative to random genomic background probes); higher = stronger binding; sequences stand for … in GC…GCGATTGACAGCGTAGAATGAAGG
Param threshold (0.9) applies to PBM binding z-score; output MET when value >= threshold, NOT MET when value < threshold.

The examples below pair each entry with its known result.
TCATATAGGTAAATGCTAGGTGTAAGTCCGATCT	MET
GGAACTAGGGCATTCGAGTTGATAGCATGGCGAT	NOT MET
ATACCAAGGTGATCGTGAGGTCGTTGGTACTAAC	MET
TCTCGGAGGACACGACGGTCAGAGCTTTCCAGAG	NOT MET
CGGCAAAGTTCAACTAAGGTAACGTAAAGCACGC	MET

As a next step, examine the sequence that follows.
I'd appreciate it if you could say whether TCTCTGAGGACACGAAGGTCAGAGCTTTCCAGAG has PBM binding z-score at least equal to 0.9.
MET
